Test: Brain tissue and whole blood concentration in SD rats after oral administration
Format: in vivo
Settings: rat, in vivo, PO 10 mg/kg, whole blood, 2 h after administration, read-out: Blood drug concentration

compound: CN1CCC[C@H]1/C=C/C(=O)Nc1ccc2ncnc(Nc3ccc(OCc4ccccn4)c(Cl)c3)c2c1 [Control compound 2, reference compound]
concentration at 2 h: 1.14 ng/mL

* * *

Listing of entries alongside the reported Vd.
Assay: Pharmacokinetics in SD rats, single intravenous injection and oral administration
Format: in vivo, SD rat
Settings: SD, rat, whole blood, IV 3 mg/kg
value_type: Vd

compound: CCOc1cc2ncc(C#N)c(Nc3ccc(OCc4ccccn4)c(Cl)c3)c2cc1NC(=O)/C=C/CN(C)C [NERATINIB, neratinib, reference compound]
value_type: Vd
value_measured: 7.94 L/kg
//
compound: COc1c(NC(=O)/C=C/[C@H]2CCCN2C(C)C)ccc2ncnc(Nc3ccc(OCc4ccccn4)c(Cl)c3)c12 [Example 24]
value_type: Vd
value_measured: 14 L/kg
//
compound: CCN1CCC[C@@H]1/C=C/C(=O)Nc1ccc2ncnc(Nc3ccc(OCc4ccccn4)c(Cl)c3)c2c1OC [Example 29]
value_type: Vd
value_measured: 22.7 L/kg
//
compound: CCCOc1c(NC(=O)/C=C/[C@H]2CCCN2C)ccc2ncnc(Nc3ccc(OCc4ccccn4)c(Cl)c3)c12 [Example 13]
value_type: Vd
value_measured: 18.7 L/kg
//
compound: CCOc1cc2ncc(C#N)c(Nc3ccc(OCc4ccccn4)c(Cl)c3)c2cc1NC(=O)/C=C/[C@H]1CCCN1C [PYROTINIB, pyrotinib, reference compound]
value_type: Vd
value_measured: 1.81 L/kg
//
compound: COc1c(NC(=O)/C=C/[C@H]2CCCN2C)ccc2ncnc(Nc3ccc(OCc4ccccn4)c(Cl)c3)c12 [Example 4]
value_type: Vd
value_measured: 20.2 L/kg

* * *

Test: Pharmacokinetics in SD rats, single intravenous injection and oral administration
Format: in vivo, SD rat
Conditions: SD, rat, whole blood, IV 3 mg/kg

compound: CN1CCC[C@@H]1/C=C/C(=O)Nc1ccc2ncnc(Nc3ccc(OCc4ccccn4)c(Cl)c3)c2c1 [Control compound 1, reference compound]
Vd / L/kg: 31
--
compound: CN1CCC[C@H]1/C=C/C(=O)Nc1ccc2ncnc(Nc3ccc(OCc4ccccn4)c(Cl)c3)c2c1 [Control compound 2, reference compound]
Vd / L/kg: 47.5
--
compound: COCCCOc1c(NC(=O)/C=C/[C@H]2CCCN2C)ccc2ncnc(Nc3ccc(OCc4ccccn4)c(Cl)c3)c12 [Example 9]
Vd / L/kg: 18

* * *

Biological target: Ba/F3 HER2 A775_G776insYVMA cells (Homo sapiens, UniProt P04626, DUP772-775, cells depend on it)
Sequence (P04626 with tags, fused parts or gaps DUP772-775): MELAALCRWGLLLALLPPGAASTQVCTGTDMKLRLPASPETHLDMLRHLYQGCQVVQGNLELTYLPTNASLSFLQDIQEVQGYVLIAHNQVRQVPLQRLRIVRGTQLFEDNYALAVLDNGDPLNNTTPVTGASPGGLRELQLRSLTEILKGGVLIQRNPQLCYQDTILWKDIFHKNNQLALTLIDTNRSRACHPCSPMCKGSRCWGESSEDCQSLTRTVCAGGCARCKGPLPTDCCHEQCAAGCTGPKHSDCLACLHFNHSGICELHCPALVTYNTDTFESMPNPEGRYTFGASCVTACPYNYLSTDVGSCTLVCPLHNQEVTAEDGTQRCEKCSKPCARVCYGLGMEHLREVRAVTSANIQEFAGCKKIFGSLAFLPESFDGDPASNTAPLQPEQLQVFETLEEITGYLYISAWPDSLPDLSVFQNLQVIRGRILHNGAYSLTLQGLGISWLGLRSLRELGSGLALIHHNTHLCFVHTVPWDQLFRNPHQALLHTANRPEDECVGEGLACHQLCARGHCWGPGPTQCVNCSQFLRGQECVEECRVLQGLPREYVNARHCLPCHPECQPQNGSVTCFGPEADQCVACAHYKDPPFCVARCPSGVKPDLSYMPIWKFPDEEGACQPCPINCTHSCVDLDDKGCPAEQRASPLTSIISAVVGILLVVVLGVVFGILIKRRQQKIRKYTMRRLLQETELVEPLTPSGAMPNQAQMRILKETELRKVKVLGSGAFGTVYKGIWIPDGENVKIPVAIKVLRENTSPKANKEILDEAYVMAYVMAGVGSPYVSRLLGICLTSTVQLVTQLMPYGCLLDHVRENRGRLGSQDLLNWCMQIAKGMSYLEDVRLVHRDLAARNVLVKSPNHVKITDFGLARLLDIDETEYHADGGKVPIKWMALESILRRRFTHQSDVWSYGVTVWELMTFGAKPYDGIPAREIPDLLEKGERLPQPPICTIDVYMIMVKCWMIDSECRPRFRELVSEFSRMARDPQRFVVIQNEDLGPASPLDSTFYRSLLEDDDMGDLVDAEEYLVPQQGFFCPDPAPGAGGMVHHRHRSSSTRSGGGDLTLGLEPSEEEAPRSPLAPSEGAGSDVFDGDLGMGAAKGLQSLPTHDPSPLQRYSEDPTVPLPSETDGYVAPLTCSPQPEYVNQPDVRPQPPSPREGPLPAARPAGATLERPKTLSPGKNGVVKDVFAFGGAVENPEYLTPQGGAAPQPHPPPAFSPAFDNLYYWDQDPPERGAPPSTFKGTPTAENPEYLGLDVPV
Experiment: Inhibition of cell proliferation, CTG method, Ba/F3 HER2 A775_G776insYVMA
Type: cell-based
Settings: 72 hours, read-out: Ba/F3 HER2 A775-G776insYVMA IC50
Listing of entries alongside the reported GI50.
value_type: GI50

compound: CCOc1c(NC(=O)/C=C/[C@H]2CCCN2CC)ccc2ncnc(Nc3ccc(OCc4cccc(F)c4)c(Cl)c3)c12 [Example 19]
value_measured: 1 to 5 nM
//
compound: CN1CCC[C@@H]1/C=C/C(=O)Nc1ccc2ncnc(Nc3ccc(Oc4ccccc4)cc3)c2c1OCCO [Example 31]
value_measured: 1 to 5 nM
//
compound: CN1CCC[C@@H]1/C=C/C(=O)Nc1ccc2ncnc(Nc3ccc(OCc4cccc(F)c4)c(Cl)c3)c2c1OC1CC1 [Example 41]
value_measured: 1 to 5 nM
//
compound: COc1c(NC(=O)/C=C/CN(C)C)ccc2ncnc(Nc3ccc(OCc4cccc(F)c4)c(Cl)c3)c12 [Example 2]
value_measured: 1 to 5 nM
//
compound: COCCOc1c(NC(=O)/C=C/[C@H]2CCCN2C)ccc2ncnc(Nc3ccc(OCc4ccccn4)c(Cl)c3)c12 [Example 8]
value_measured: 1 to 5 nM
//
compound: CCOc1cc2ncc(C#N)c(Nc3ccc(OCc4ccccn4)c(Cl)c3)c2cc1NC(=O)/C=C/[C@H]1CCCN1C [PYROTINIB, pyrotinib, reference compound]
value_measured: 10 to 100 nM
//
compound: CCOc1c(NC(=O)/C=C/[C@H]2CCCN2C)ccc2ncnc(Nc3ccc(OCc4cccc(C)n4)c(Cl)c3)c12 [Example 22]
value_measured: 1 to 5 nM
//
compound: CCCOc1c(NC(=O)/C=C/[C@H]2CCCN2C)ccc2ncnc(Nc3ccc(OCc4ccccn4)c(Cl)c3)c12 [Example 13]
value_measured: 1 to 5 nM
//
compound: CN1CCC[C@@H]1/C=C/C(=O)Nc1ccc2ncnc(Nc3ccc(OCc4ccccn4)c(Cl)c3)c2c1OCCCO [Example 17]
value_measured: 1 to 5 nM
//
compound: [2H]C([2H])([2H])Oc1c(NC(=O)/C=C/[C@H]2CCCN2CC)ccc2ncnc(Nc3ccc(OCc4ccccn4)c(Cl)c3)c12 [Example 34]
value_measured: 1 to 5 nM
//
compound: CCN1CCC[C@@H]1/C=C/C(=O)Nc1ccc2ncnc(Nc3ccc(OCc4ccccn4)c(Cl)c3)c2c1OC [Example 29]
value_measured: < 1 nM
//
compound: COCCN1CCC[C@@H]1/C=C/C(=O)Nc1ccc2ncnc(Nc3ccc(OCc4ccccn4)c(Cl)c3)c2c1OC [Example 25]
value_measured: 1 to 5 nM
//
compound: CN1CCC[C@@H]1/C=C/C(=O)Nc1ccc2ncnc(Nc3ccc(OCc4ccccn4)c(Cl)c3)c2c1OCCCF [Example 10]
value_measured: 1 to 5 nM
//
compound: CCOc1c(NC(=O)/C=C/[C@H]2CCCN2C)ccc2ncnc(Nc3ccc(OCc4ccccn4)c(F)c3)c12 [Example 21]
value_measured: 1 to 5 nM
//
compound: CN1CCC[C@@H]1/C=C/C(=O)Nc1ccc2ncnc(Nc3ccc(OCc4ccccn4)c(Cl)c3)c2c1OCCC(F)(F)F [Example 12]
value_measured: 1 to 5 nM
//
compound: CN1CCC[C@@H]1/C=C/C(=O)Nc1ccc2ncnc(Nc3ccc(OCc4ccccn4)c(Cl)c3)c2c1OCCC(C)(C)O [Example 16]
value_measured: 1 to 5 nM
//
compound: COc1c(NC(=O)/C=C/[C@H]2CCCN2C)ccc2ncnc(Nc3ccc(OCc4ccccn4)c(F)c3)c12 [Example 30]
value_measured: 1 to 5 nM
//
compound: CN1CCC[C@@H]1/C=C/C(=O)Nc1ccc2ncnc(Nc3ccc(OCc4ccccn4)c(Cl)c3)c2c1OCC(F)F [Example 11]
value_measured: 1 to 5 nM
//
compound: CCN1CCC[C@@H]1/C=C/C(=O)Nc1ccc2ncnc(Nc3ccc(OCc4cccc(F)c4)c(Cl)c3)c2c1OC [Example 28]
value_measured: 1 to 5 nM
//
compound: COc1c(NC(=O)/C=C/[C@H]2CCCN2C)ccc2ncnc(Nc3ccc(OCc4ccccn4)c(Cl)c3)c12 [Example 4]
value_measured: < 1 nM
//
compound: COc1cccc(COc2ccc(Nc3ncnc4ccc(NC(=O)/C=C/[C@H]5CCCN5C)c(OC)c34)cc2Cl)n1 [Example 27]
value_measured: 1 to 5 nM
//
compound: CCOc1c(NC(=O)/C=C/[C@H]2CCCN2CC)ccc2ncnc(Nc3ccc(OCc4ccccn4)c(Cl)c3)c12 [Example 20]
value_measured: 1 to 5 nM
//
compound: CC(C)COc1c(NC(=O)/C=C/[C@H]2CCCN2C)ccc2ncnc(Nc3ccc(OCc4ccccn4)c(Cl)c3)c12 [Example 14]
value_measured: 1 to 5 nM
//
compound: [2H]C([2H])([2H])Oc1c(NC(=O)/C=C/[C@H]2CCCN2C)ccc2ncnc(Nc3ccc(OCc4ccccn4)c(Cl)c3)c12 [Example 33]
value_measured: < 1 nM
//
compound: CN1CCC[C@@H]1/C=C/C(=O)Nc1ccc2ncnc(Nc3ccc(OCc4ccccn4)c(Cl)c3)c2c1OC1CC1 [Example 37]
value_measured: 1 to 5 nM
//
compound: COc1c(NC(=O)/C=C/[C@H]2CCCN2C(C)C)ccc2ncnc(Nc3ccc(OCc4ccccn4)c(Cl)c3)c12 [Example 24]
value_measured: 1 to 5 nM
//
compound: CN1CCC[C@@H]1/C=C/C(=O)Nc1ccc2ncnc(Nc3ccc(OCc4ccccn4)c(Cl)c3)c2c1OCC(C)(C)O [Example 15]
value_measured: 1 to 5 nM
//
compound: COCCCOc1c(NC(=O)/C=C/[C@H]2CCCN2C)ccc2ncnc(Nc3ccc(OCc4ccccn4)c(Cl)c3)c12 [Example 9]
value_measured: 1 to 5 nM

* * *

Listing of entries alongside the reported Kp at 2 h.
Assay: Brain tissue and whole blood concentration in SD rats after oral administration
Assay type: in vivo
Details: rat, brain / whole blood, PO 10 mg/kg, 2 h after administration, read-out: Brain tissue/blood ratio

compound: CCN1CCC[C@@H]1/C=C/C(=O)Nc1ccc2ncnc(Nc3ccc(OCc4ccccn4)c(Cl)c3)c2c1OC
Kp at 2 h: 0.36

compound: CCOc1cc2ncc(C#N)c(Nc3ccc(OCc4ccccn4)c(Cl)c3)c2cc1NC(=O)/C=C/CN(C)C [NERATINIB, neratinib, reference compound]
Kp at 2 h: 0.0366

compound: CCOc1cc2ncc(C#N)c(Nc3ccc(OCc4ccccn4)c(Cl)c3)c2cc1NC(=O)/C=C/[C@H]1CCCN1C [PYROTINIB, pyrotinib, reference compound]
Kp at 2 h: 0.0291

compound: CCCOc1c(NC(=O)/C=C/[C@H]2CCCN2C)ccc2ncnc(Nc3ccc(OCc4ccccn4)c(Cl)c3)c12
Kp at 2 h: 0.465

Just for reference, patent US20240246934A1 is where these values come from.
